Target: Complement factor D [24-253] (Mus musculus)
Sequence (P03953 whole entry): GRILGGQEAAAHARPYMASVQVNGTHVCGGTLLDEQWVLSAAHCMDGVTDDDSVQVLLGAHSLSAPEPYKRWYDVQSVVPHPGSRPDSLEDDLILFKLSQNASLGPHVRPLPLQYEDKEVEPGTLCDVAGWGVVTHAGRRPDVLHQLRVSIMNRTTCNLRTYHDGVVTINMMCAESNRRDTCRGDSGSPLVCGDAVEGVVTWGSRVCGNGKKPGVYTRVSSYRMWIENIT

{"columns": ["Query smiles", "IC50, nM"],
 "data": [
  ["C[C@@H](NC(=O)[C@@H]1C[C@H]2C[C@H]2N1C(=O)Cn1nc(C(N)=O)c2ccncc21)c1cccc(Cl)c1F", 860]
]}
